Tested on: UACC-62 melanoma
Test Method Notes: NCI-60 one-dose screen, 48 h (100 = growth as untreated, 0 = no growth, -100 = all killed)
Particulars: 10 µM unless noted
Compounds without any hit were thinned out: in the full panel of roughly 83,000, 20% have a hit.
Measurement Kind: growth (%)
One number for each entry, in %.

The examples below pair each entry with its known result.
Nc1n[nH]c2cccc(C#Cc3cccc(NC(=O)c4cc(N5CCOCC5)cc(C(F)(F)F)c4)c3)c12 :: 14
Nc1c(C(=O)Nc2cccc3ccccc23)sc2nc3c(cc12)COCC3 :: 30.2

From here, focus on the item given below.
Query block: I am curious: what growth value has been reported for CC(=O)c1c(OCC#N)ccc2c(C)cc(=O)oc12 ?
Result block: 96.5

---

Tested on: OVCAR-8 ovarian
Test Method Notes: NCI-60 one-dose screen, 48 h (100 = growth as untreated, 0 = no growth, -100 = all killed)
Particulars: 10 µM unless noted
Compounds without any hit were thinned out: in the full panel of roughly 83,000, 20% have a hit.
Consider the cut-off 40%. If the recorded growth is strictly smaller, the label is met; if not, the label is not met.

Query block: Please indicate whether the reported growth of COC(=O)c1nc(-c2ccccc2)oc1S(=O)(=O)n1nc(-c2ccccc2)cc1N is strictly below 40%.
Result block: not met

---

Test system: MDA-MB-435 melanoma
Test Method Notes: NCI-60 one-dose screen, 48 h
Particulars: 10 µM unless noted
About 83,000 compounds went through this panel and 20% of them were active in at least one assay; those are over-represented in the sample as a whole. Active and inactive are the calls of the source. The calls were made as follows: active = growth percent below 10; inactive = the rest.
I would appreciate it if you answered using one of these outcomes: active, inactive

The following molecules have reported results that may help.
COc1ccc2nc(-c3ccc(OC)c(OC)c3)cc(-c3nnc(SCC(=O)Nc4ccc(/C(C)=N\O)cc4)n3-c3ccccc3)c2c1 :: inactive
Cc1cc(C)n(-c2nc(-c3cccs3)c(C#N)c(=O)[nH]2)n1 :: inactive
CO[C@@]12C=C[C@@]34CCC(=O)N3c3ccccc3[C@@H](O1)C4C2 :: inactive
S=C(Nc1ccccc1)c1ccccn1 :: inactive
COc1cccc(C(=O)OCCn2nc3c4c(cccc42)C(=O)c2ccccc2-3)c1O :: active

Query block: Answer briefly: the call reported for C#CCN(CCCOc1ccc(Cl)cc1Cl)CCCSC(=O)CCCCCN1/C(=C\C=C2/CCCC(/C=C/C3=[N+](CCCCCC(=O)[O-])c4ccccc4C3(C)C)=C2Cl)C(C)(C)c2ccccc21 in this assay.
Result block: active

Query block: Hi team, can someone confirm the assay call for C=C(C)[C@@H]1CC[C@]2(C(=O)OCCOCCOCC[P+](c3ccccc3)(c3ccccc3)c3ccccc3)CC[C@]3(C)[C@H](CC[C@@H]4[C@@]5(C)CC[C@H](C)C(C)(C)[C@@H]5CC[C@]43C)[C@@H]12 ?
Result block: active

---

Tested on: NCI-H460 lung
Test Method Notes: NCI-60 one-dose screen, 48 h (100 = growth as untreated, 0 = no growth, -100 = all killed)
Particulars: 10 µM unless noted
Compounds without any hit were thinned out: in the full panel of roughly 83,000, 20% have a hit.
Outcome label depends on growth relative to 90%: at/above gives True, below gives False.

O=C(Nc1nc2ccc(C(F)(F)F)cc2s1)c1cc(Cl)ccc1O :: False
O=C(NC[C@H](O)CN1CCc2ccccc2C1)c1cc(NC2COC2)ncn1 :: True
[2H]c1cc2c(c([2H])c1F)/C(=C/c1[nH]c(C)c(C(=O)NCCN(CC)CC)c1C)C(=O)N2 :: False
O=C1Nc2ccccc2C12C=C(c1ccccc1)Nc1c2c(-c2ccccc2)nn1-c1ccccc1 (stereo not given) :: False

Query block: Would you say CSc1nc(-c2ccc(F)cc2)c(C#N)c(N2CCOCC2)n1 shows growth at minimum 90%?
Result block: True

Query block: Would you say Cc1c(Cl)cccc1NC(=O)c1sc2nc3c(cc2c1N)CCCCCC3 shows growth at minimum 90%?
Result block: False

Query block: Kindly determine if growth recorded for C#C[C@@]1(O)[C@@H](CO)O[C@@H](n2cc(-c3ccco3)c3c(N)ncnc32)[C@@H]1O is above or exactly 90%.
Result block: False

Query block: Say whether O=c1c2ccccc2oc2ccc(OCCCCCN3CCCCCC3)cc12 shows growth of 90% or more.
Result block: False

Query block: For this molecule, is measured growth 90% or higher? C[C@H]1[C@H](C)CC[C@]2(C(=O)OCCOCCOCC[P+](c3ccccc3)(c3ccccc3)c3ccccc3)CC[C@]3(C)C(=CC[C@@H]4[C@@]5(C)CC[C@H](OC(=O)C(Cl)Cl)C(C)(C)[C@@H]5CC[C@]43C)[C@H]12
Result block: False

Query block: Assess whether reported growth for CC(=O)Oc1c2c(nc3c1c1ccccc1n3Cc1ccccc1)-c1ccccc1C2 sits at 90% or higher.
Result block: True

Query block: In plain terms: is recorded growth at least 90% for O=C1C(Cl)=C(NCCCN(CCCNC2=C(Cl)C(=O)c3ccccc3C2=O)C2=C(Cl)C(=O)c3ccccc3C2=O)C(=O)c2ccccc21 ?
Result block: False

Query block: Hi, just wondering whether CC1(C)CC[C@]2(c3nnc(-c4ccncc4)o3)CC[C@]3(C)C(=CC[C@@H]4[C@@]5(C)CCC(=O)C(C)(C)[C@@H]5CC[C@]43C)[C@@H]2C1 shows growth of 90% or higher.
Result block: False

Query block: Does the molecule Cc1c(Cl)cccc1NC(=O)c1sc2nc3c(cc2c1N)CN(Cc1ccccc1)CC3 have recorded growth that is 90% or more?
Result block: False

Every entry's value here was drawn from PubChem BioAssay (NCI).
